Reported pEC50 values follow for various compounds
Biological target: mAC3 activated by Gsα (Q227L) (Homo sapiens, UniProt O60266)
Sequence (O60266 whole entry, stated change not applied): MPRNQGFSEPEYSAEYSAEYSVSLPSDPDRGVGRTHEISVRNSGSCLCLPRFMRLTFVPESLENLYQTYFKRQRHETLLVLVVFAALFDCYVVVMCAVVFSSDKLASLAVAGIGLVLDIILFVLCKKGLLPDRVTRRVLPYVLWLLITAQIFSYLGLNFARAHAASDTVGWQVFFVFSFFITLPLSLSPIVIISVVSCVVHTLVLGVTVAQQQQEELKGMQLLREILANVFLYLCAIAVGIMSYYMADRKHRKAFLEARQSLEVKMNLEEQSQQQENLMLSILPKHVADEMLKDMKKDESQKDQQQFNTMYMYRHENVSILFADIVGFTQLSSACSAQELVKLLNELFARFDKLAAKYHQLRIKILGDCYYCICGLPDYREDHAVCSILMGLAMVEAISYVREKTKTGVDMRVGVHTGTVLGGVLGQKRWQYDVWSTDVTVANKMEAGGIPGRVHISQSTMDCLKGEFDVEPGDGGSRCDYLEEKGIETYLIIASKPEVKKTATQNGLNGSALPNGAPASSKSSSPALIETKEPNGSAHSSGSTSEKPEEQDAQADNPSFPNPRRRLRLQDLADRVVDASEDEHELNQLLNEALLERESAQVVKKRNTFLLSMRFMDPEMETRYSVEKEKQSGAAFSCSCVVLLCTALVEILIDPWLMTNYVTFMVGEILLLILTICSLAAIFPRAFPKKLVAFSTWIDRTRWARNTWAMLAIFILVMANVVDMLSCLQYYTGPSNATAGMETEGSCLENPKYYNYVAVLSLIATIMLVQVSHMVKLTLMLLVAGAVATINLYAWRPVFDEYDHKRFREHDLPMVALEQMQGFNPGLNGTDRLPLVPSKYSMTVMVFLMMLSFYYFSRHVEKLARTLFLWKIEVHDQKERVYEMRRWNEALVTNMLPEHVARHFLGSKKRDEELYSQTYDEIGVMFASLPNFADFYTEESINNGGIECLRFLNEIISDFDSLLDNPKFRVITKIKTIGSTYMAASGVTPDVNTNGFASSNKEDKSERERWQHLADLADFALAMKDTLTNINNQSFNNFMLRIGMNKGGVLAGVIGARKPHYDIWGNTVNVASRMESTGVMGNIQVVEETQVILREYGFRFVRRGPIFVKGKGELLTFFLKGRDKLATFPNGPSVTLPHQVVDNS
Sequence (P63092 2-394 Q227L partner): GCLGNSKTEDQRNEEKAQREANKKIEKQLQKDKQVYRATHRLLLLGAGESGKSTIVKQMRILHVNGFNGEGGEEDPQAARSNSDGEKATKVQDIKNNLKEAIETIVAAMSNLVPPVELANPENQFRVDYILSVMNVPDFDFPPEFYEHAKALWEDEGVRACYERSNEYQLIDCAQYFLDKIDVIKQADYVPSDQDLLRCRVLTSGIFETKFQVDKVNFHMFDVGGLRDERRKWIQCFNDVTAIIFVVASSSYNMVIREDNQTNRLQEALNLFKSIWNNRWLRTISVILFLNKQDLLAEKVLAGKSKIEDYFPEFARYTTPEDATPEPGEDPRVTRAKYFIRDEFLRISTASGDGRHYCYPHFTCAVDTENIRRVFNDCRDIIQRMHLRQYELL
Test: cAMP formation in membranes
pEC50: −log10 of the molar value.
resultType: pEC50

1. CC/C=C\C/C=C\C/C=C\C/C=C\C/C=C\C/C=C\CCC(=O)O[C@H](COC(=O)CCCCCCCCCCCCCCCCC)COP(=O)(O)OC[C@H](N)C(=O)O	5.92
2. CCCCC/C=C\C/C=C\C/C=C\C/C=C\CCCC(=O)O[C@H](COC(=O)CCCCCCCCCCCCCCCCC)COP(=O)(O)O	5.32
3. CC/C=C\C/C=C\C/C=C\C/C=C\C/C=C\C/C=C\CCC(=O)O[C@H](COC(=O)CCCCCCCCCCCCCCC)COP(=O)(O)O	5.89
4. CC/C=C\C/C=C\C/C=C\C/C=C\C/C=C\C/C=C\CCC(=O)OC[C@H](COP(=O)(O)O)OC(=O)CC/C=C\C/C=C\C/C=C\C/C=C\C/C=C\C/C=C\CC	5.85
5. CC/C=C\C/C=C\C/C=C\C/C=C\C/C=C\C/C=C\CCC(=O)O[C@H](COC(=O)CCCCCCCCCCCCCCCCC)COP(=O)(O)O	6.05

---

Molecular target: mAC1 (Homo sapiens, UniProt Q08828)
Sequence (Q08828 whole entry): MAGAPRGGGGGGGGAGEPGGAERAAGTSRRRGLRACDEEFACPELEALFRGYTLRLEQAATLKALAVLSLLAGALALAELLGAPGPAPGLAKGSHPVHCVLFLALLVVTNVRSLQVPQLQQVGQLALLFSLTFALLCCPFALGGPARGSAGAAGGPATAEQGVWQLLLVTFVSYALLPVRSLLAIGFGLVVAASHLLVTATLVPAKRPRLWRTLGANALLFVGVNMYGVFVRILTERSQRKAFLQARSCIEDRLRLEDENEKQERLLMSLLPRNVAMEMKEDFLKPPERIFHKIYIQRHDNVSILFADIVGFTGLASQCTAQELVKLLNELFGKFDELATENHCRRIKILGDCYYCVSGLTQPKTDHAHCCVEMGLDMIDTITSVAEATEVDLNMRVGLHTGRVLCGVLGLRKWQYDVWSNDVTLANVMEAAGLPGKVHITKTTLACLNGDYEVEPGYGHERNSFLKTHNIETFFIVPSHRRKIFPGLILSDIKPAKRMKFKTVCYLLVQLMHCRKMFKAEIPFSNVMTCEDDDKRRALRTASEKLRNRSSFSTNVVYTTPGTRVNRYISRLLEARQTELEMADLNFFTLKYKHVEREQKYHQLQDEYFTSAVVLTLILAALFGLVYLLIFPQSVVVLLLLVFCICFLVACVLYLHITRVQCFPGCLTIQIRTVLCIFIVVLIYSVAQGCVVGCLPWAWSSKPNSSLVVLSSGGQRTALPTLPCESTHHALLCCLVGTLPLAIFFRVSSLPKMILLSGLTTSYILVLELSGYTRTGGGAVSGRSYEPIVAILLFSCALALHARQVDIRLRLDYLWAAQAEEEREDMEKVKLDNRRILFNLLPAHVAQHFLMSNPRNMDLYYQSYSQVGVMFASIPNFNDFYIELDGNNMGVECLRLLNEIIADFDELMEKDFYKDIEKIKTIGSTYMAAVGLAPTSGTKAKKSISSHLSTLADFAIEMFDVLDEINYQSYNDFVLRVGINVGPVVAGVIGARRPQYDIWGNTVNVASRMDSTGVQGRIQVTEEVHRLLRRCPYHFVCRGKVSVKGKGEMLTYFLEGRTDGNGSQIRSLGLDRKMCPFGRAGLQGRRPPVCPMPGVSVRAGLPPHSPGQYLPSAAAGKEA
Assay: cAMP formation in membranes
pEC50: −log10 of the molar value.
resultType: pEC50

1) C=C[C@@]1(C)CC(=O)[C@]2(O)[C@@]3(C)[C@@H](O)CCC(C)(C)[C@@H]3[C@H](O)[C@H](OC(C)=O)[C@@]2(C)O1	5.70

---

Biological target: mAC6 activated by Gsα (Q227L) (Homo sapiens)
Assay: cAMP formation in membranes
pEC50: −log10 of the molar value.
resultType: pEC50

1. CC/C=C\C/C=C\C/C=C\C/C=C\C/C=C\C/C=C\CCC(=O)O[C@H](COC(=O)CCCCCCCCCCCCCCCCC)COP(=O)(O)O	6.15

---

Target: mAC9 activated by Gsα (Q227L) (Homo sapiens, UniProt O60503)
Sequence (O60503 whole entry, stated change not applied): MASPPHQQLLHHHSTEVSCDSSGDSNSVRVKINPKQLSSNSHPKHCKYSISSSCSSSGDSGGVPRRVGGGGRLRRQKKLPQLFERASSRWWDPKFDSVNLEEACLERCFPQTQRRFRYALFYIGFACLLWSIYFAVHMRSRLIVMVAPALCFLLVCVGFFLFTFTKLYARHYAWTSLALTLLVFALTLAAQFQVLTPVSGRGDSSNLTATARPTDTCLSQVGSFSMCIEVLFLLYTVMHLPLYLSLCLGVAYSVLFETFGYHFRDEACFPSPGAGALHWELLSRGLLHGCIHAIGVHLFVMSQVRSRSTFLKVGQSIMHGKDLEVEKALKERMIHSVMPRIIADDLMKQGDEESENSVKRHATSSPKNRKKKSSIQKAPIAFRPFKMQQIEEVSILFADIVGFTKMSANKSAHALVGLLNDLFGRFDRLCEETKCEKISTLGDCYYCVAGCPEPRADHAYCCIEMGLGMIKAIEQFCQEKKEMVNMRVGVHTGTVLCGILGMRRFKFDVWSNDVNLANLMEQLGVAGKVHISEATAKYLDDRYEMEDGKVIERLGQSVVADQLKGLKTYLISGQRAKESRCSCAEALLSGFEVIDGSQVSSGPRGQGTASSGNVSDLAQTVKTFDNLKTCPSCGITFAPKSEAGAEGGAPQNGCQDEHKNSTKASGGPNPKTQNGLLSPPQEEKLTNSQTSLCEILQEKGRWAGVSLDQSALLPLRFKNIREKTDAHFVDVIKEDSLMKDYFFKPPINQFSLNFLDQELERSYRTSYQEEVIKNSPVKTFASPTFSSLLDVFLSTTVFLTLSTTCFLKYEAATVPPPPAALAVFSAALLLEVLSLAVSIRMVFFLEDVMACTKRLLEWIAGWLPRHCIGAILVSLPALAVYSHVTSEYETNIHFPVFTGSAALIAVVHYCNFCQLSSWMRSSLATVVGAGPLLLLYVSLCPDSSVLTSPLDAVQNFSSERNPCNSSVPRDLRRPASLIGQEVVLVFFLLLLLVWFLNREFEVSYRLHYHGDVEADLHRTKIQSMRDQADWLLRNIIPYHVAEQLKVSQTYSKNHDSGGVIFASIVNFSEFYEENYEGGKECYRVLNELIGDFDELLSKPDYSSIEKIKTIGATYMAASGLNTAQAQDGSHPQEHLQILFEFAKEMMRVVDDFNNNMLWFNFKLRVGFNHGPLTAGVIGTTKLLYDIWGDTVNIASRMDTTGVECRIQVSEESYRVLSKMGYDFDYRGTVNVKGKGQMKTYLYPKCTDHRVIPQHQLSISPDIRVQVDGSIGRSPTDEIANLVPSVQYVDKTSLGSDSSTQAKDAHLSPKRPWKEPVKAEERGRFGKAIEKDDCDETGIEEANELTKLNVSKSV
Sequence (P63092 2-394 Q227L partner): as the sequence (P63092 2-394 Q227L partner) above
Experiment: cAMP formation in membranes
Assay type: biochemical
resultType: EC50 (nM)

1) CC/C=C\C/C=C\C/C=C\C/C=C\C/C=C\C/C=C\CCC(=O)O[C@H](COC(=O)CCCCCCCCCCCCCCCCC)COP(=O)(O)O	700
